Data origin: patent US10045981B2

# tgt: CYP1A2 (Homo sapiens, UniProt P05177)
# Sequence (P05177 whole entry): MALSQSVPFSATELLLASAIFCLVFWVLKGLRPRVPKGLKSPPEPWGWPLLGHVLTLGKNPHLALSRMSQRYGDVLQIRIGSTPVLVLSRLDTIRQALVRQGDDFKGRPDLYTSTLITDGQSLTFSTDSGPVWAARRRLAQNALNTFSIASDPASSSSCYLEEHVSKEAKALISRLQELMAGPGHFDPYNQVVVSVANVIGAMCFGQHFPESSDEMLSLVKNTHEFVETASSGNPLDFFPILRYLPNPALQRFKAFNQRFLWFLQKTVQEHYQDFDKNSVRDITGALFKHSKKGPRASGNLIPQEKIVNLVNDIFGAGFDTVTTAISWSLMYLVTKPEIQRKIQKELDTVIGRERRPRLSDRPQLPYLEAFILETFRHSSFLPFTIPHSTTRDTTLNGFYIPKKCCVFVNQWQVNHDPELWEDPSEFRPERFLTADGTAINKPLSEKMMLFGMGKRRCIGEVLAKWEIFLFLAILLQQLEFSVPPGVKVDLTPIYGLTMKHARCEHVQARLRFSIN
# experiment-description: CYP1A2 inhibition LCMS
# Assay type: in vitro ADME
# applied-conditions: first session (before /)
test-readout: IC50 (µM)
Express the result in µM but write the number alone.

Output IC50 of C=CC(=O)Nc1cc(CN2CCN(C)C(=O)C2)cc(-c2cnc3ccccc3n2)c1 [Compound 1a]
34

Indicate its recorded IC50; the compound in question is C=CC(=O)Nc1cc(CC(=O)OC)cc(-c2cnc3ccccc3n2)c1 [Compound 2]
90

---

# experiment-description: Solubility in aqueous buffer
# Format: physicochemical
# applied-conditions: aqueous buffer, pH 7.4, aqueous buffer, pH 7.4, Table 3, first session (before /); read-out: Solubility, pH 7.4
Can you tell me solubility for the items I'm about to list?
Quick reminder: number only, in µM, skip the unit.

Find the measured solubility of C=CC(=O)Nc1cc(CC(=O)OC)cc(-c2cnc3ccccc3n2)c1 [Compound 2] and report it.
9

Respond only with solubility recorded for C=CC(=O)Nc1cc(NS(C)(=O)=O)cc(-c2cnc3ccccc3n2)c1 [Compound 3]
34

Report solubility for C=CC(=O)Nc1cc(CN2CCNC(=O)C2)cc(-c2cnc3ccccc3n2)c1 [Compound 1b]
88

Indicate the recorded solubility value for this molecule: C=CC(=O)Nc1cc(CN2CCN(C)C(=O)C2)cc(-c2cnc3ccccc3n2)c1 [Compound 1a]
85

---

I'd appreciate it if you could supply half-life values for the items below.
# experiment-description: Mouse Liver Microsomes stability
# Assay type: in vitro ADME
# applied-conditions: first session (before /), read-out: Mouse Liver Microsomes t½
Expressed in min, but write only the number.

Check the records and state half-life for C=CC(=O)Nc1cc(CN2CCN(C)C(=O)C2)cc(-c2cnc3ccccc3n2)c1
7.3

Give me measured half-life, please, for this compound: C=CC(=O)Nc1cc(NS(C)(=O)=O)cc(-c2cnc3ccccc3n2)c1
25

Provide measured half-life value, entry: C=CC(=O)Nc1cc(CN2CCNC(=O)C2)cc(-c2cnc3ccccc3n2)c1
23

Give half-life for C=CC(=O)Nc1cc(CC(=O)OC)cc(-c2cnc3ccccc3n2)c1
3.3

---

# tgt: CYP1A2 (Homo sapiens, UniProt P05177)
# experiment-description: CYP1A2 inhibition LCMS
# Format: in vitro ADME
# applied-conditions: second session (after /)
I'd be grateful if you could share measured IC50 for these entries.

Complete the entry with IC50 for C=CC(=O)Nc1cc(NS(C)(=O)=O)cc(-c2cnc3ccccc3n2)c1 [Compound 3]
> 100 µM

Please give the documented IC50 of C=CC(=O)Nc1cc(CC(=O)OC)cc(-c2cnc3ccccc3n2)c1 [Compound 2]
5.1 µM

Give a short answer stating reported IC50 for C=CC(=O)Nc1cc(CN2CCNC(=O)C2)cc(-c2cnc3ccccc3n2)c1 [Compound 1b] .
> 100 µM

Dear colleague, please send me the reported IC50 for C=CC(=O)Nc1cc(CN2CCN(C)C(=O)C2)cc(-c2cnc3ccccc3n2)c1 [Compound 1a] when you can.
> 100 µM

---

# tgt: JAK3 (Homo sapiens)
# Sequence (P52333 whole entry): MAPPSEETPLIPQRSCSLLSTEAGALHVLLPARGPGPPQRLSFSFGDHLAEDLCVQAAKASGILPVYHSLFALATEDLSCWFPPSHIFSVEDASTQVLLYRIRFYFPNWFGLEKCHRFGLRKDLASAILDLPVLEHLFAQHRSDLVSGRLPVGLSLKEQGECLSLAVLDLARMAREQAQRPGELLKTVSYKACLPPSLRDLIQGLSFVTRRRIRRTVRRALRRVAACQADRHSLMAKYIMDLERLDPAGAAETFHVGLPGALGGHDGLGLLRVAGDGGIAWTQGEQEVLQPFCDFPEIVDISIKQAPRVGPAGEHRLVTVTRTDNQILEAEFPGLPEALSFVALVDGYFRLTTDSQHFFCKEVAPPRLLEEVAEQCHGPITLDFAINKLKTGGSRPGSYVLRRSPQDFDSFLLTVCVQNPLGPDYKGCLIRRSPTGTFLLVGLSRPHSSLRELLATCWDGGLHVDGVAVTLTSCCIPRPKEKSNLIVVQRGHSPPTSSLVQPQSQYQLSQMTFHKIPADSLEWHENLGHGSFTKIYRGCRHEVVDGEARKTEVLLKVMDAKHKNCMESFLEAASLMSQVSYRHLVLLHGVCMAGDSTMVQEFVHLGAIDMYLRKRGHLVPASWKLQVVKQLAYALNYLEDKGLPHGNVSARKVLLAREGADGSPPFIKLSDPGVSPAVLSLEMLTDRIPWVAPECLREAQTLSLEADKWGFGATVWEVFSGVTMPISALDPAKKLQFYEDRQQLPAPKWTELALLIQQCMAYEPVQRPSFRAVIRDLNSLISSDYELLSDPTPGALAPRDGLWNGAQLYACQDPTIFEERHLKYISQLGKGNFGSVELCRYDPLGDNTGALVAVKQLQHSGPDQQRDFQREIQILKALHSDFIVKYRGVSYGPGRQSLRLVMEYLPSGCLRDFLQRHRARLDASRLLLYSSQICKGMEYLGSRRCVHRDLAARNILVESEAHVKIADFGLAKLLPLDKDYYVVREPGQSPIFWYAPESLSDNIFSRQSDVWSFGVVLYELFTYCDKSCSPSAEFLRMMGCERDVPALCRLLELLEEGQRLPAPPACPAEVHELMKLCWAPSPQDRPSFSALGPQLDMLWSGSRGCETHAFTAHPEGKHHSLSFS
# experiment-description: JAK3 biochemical IC50
# applied-conditions: re-test; read-out: JAK3 IC50 (uM) re-test
test-readout: IC50 (µM)
Field: numeric (µM). Do not append units.

Write down IC50 measured for item C=CC(=O)Nc1cc(CC(=O)OC)cc(-c2cnc3ccccc3n2)c1
0.007

Provide one value: measured IC50 of C=CC(=O)Nc1cc(NS(C)(=O)=O)cc(-c2cnc3ccccc3n2)c1
0.023

Provide IC50 value for the following compound: C=CC(=O)Nc1cc(CN2CCN(C)C(=O)C2)cc(-c2cnc3ccccc3n2)c1
0.01

Let me know recorded IC50 for C=CC(=O)Nc1cc(CN2CCNC(=O)C2)cc(-c2cnc3ccccc3n2)c1 , thanks.
0.018

---

# experiment-description: Brain penetration classification
test-readout: Brain penetration classification

> print(dat)
                                   compound                      test.readout  endpoint.value
1  C=CC(=O)Nc1cc(CN2CCN(C)C(=O)C2)cc(-c2cnc3ccccc3n2)c1 [Compound 1a]  Brain penetration classification             Low
2  C=CC(=O)Nc1cc(NS(C)(=O)=O)cc(-c2cnc3ccccc3n2)c1 [Compound 3]  Brain penetration classification             Low
3  C=CC(=O)Nc1cc(CN2CCNC(=O)C2)cc(-c2cnc3ccccc3n2)c1 [Compound 1b]  Brain penetration classification             Low

---

I'd be grateful if you could share measured IC50 for these entries.
# tgt: JAK3 (Homo sapiens)
# experiment-description: JAK3 biochemical IC50
# applied-conditions: Original analysis; read-out: JAK3 IC50 (uM) Original
Kindly answer with a numeric value in µM, unit omitted.

Give me measured IC50, please, for this compound: C=CC(=O)Nc1cc(NS(C)(=O)=O)cc(-c2cnc3ccccc3n2)c1
0.016

Using the record for C=CC(=O)Nc1cc(CC(=O)OC)cc(-c2cnc3ccccc3n2)c1 , state its measured IC50.
0.013

Give recorded IC50. C=CC(=O)Nc1cc(CN2CCNC(=O)C2)cc(-c2cnc3ccccc3n2)c1
0.018

Output measured IC50 for this item: C=CC(=O)Nc1cc(CN2CCN(C)C(=O)C2)cc(-c2cnc3ccccc3n2)c1
0.013

---

Please provide measured pIC50 for the entries that follow.
# tgt: EGFR (d752-759) (Homo sapiens, UniProt P00533, DEL752-759)
# Sequence (P00533 with tags, fused parts or gaps DEL752-759 limits assumed): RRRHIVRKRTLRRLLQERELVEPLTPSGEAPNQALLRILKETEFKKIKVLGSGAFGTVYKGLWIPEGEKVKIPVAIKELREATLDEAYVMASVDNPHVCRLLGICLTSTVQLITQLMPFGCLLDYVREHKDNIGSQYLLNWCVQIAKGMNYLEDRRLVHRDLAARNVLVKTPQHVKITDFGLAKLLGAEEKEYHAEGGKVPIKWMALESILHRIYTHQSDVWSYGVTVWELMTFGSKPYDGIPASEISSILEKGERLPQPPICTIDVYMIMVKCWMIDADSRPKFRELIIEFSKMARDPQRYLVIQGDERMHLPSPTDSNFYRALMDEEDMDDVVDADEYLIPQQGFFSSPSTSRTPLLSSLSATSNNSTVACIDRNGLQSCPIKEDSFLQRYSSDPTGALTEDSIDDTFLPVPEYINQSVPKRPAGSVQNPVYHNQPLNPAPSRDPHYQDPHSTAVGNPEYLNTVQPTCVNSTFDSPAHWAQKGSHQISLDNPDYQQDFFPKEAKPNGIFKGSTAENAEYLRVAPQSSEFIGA
# experiment-description: Exemplary Kinase Panel Analysis
# applied-conditions: 10 concentrations, 3-fold serial dilutions starting at 5 μM, duplicate
Quick note: pIC50 values are minus log10 of concentrations in mol/L.

State pIC50 on EGFR (d752-759) (Homo sapiens, UniProt P00533, DEL752-759). Entry: C=CC(=O)Nc1cc(CN2CCN(C)C(=O)C2)cc(-c2cnc3ccccc3n2)c1 [Compound 1a]
6.71

Given C=CC(=O)Nc1cc(CN2CCNC(=O)C2)cc(-c2cnc3ccccc3n2)c1 [Compound 1b] , report its pIC50 on EGFR (d752-759) (Homo sapiens, UniProt P00533, DEL752-759).
5.81

Fetch value of pIC50 on EGFR (d752-759) (Homo sapiens, UniProt P00533, DEL752-759) for C=CC(=O)Nc1cc(NS(C)(=O)=O)cc(-c2cnc3ccccc3n2)c1 [Compound 3] .
5.50

Please tell me the measured pIC50 for C=CC(=O)Nc1cc(CC(=O)OC)cc(-c2cnc3ccccc3n2)c1 [Compound 2] ; system: EGFR (d752-759) (Homo sapiens, UniProt P00533, DEL752-759).
5.99

---

CK1g3 (Homo sapiens): recorded pIC50 for assorted compounds
Sequence (Q9Y6M4 whole entry): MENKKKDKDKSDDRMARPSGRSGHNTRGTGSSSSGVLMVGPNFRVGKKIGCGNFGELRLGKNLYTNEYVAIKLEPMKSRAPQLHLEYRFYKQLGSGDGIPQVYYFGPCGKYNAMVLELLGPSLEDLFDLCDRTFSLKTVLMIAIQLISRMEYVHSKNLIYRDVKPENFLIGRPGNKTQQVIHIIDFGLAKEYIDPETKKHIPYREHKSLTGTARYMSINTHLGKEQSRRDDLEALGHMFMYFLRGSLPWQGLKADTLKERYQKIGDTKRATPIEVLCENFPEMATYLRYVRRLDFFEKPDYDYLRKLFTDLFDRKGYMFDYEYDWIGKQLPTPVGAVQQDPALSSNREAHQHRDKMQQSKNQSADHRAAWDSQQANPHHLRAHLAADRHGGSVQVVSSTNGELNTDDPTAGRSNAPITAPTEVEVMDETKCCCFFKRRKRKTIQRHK
Just the number, please; pIC50 means minus log10 of the concentration in mol/L.

# return recorded pIC50 for entry C=CC(=O)Nc1cc(CN2CCN(C)C(=O)C2)cc(-c2cnc3ccccc3n2)c1
6.45

Return the recorded pIC50 value; entry: C=CC(=O)Nc1cc(NS(C)(=O)=O)cc(-c2cnc3ccccc3n2)c1
6.93

Look up and state reported pIC50 for C=CC(=O)Nc1cc(CN2CCNC(=O)C2)cc(-c2cnc3ccccc3n2)c1
6.12

---

Kindly state IC50 for each of the entries shown.
# tgt: CYP3A4 (Homo sapiens, UniProt P08684)
# Sequence (P08684 whole entry): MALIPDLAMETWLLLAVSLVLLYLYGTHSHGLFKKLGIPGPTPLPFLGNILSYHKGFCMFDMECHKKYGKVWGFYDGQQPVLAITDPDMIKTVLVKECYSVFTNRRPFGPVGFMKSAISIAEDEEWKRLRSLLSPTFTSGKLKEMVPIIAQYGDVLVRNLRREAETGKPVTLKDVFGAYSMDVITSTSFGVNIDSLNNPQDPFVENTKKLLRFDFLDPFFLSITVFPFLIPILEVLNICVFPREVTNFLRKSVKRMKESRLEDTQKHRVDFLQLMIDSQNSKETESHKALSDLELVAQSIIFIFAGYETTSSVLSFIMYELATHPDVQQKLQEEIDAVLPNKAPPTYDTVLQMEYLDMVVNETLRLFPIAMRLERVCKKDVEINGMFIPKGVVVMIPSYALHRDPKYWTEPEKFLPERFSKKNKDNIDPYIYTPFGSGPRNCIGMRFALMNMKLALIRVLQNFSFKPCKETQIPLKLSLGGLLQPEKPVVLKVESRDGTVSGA
# experiment-description: CYP3A4 inhibition testosterone LCMS
# Format: in vitro ADME
# applied-conditions: first session (before /), read-out: CYP3A4 K50 [uM] testosterone LCMS
Numeric only. Scale: µM

Find the measured IC50 of C=CC(=O)Nc1cc(CN2CCN(C)C(=O)C2)cc(-c2cnc3ccccc3n2)c1 [Compound 1a] and report it.
81.5

Look up and state reported IC50 for C=CC(=O)Nc1cc(NS(C)(=O)=O)cc(-c2cnc3ccccc3n2)c1 [Compound 3]
89.7

---

# experiment-description: Human Liver Microsomes stability
# Format: in vitro ADME
# applied-conditions: first session (before /), read-out: Human Liver Microsomes t½
Kindly state half-life for each of the entries shown.
Use h as the unit, but write only the number.

Identify half-life associated with the molecule C=CC(=O)Nc1cc(NS(C)(=O)=O)cc(-c2cnc3ccccc3n2)c1
0.967

Specify half-life for C=CC(=O)Nc1cc(CN2CCN(C)C(=O)C2)cc(-c2cnc3ccccc3n2)c1 and stop.
1.07

# return recorded half-life for input C=CC(=O)Nc1cc(CN2CCNC(=O)C2)cc(-c2cnc3ccccc3n2)c1
1.25

---

# System: L929 Fibroblasts
# experiment-description: Cytotoxicity Screening L929 Fibroblasts
# Format: cell-based
So I've got a bunch of compounds here, and I need their Minimal Effective Concentration (MEC, uM) values.
Field: numeric (µM). Do not append units.

GET Minimal Effective Concentration (MEC, uM) | system: L929 Fibroblasts | item: C=CC(=O)Nc1cc(NS(C)(=O)=O)cc(-c2cnc3ccccc3n2)c1
10

Please look at C=CC(=O)Nc1cc(CN2CCNC(=O)C2)cc(-c2cnc3ccccc3n2)c1 and tell me its recorded Minimal Effective Concentration (MEC, uM) on L929 Fibroblasts.
20

Output reported Minimal Effective Concentration (MEC, uM) of the compound C=CC(=O)Nc1cc(CC(=O)OC)cc(-c2cnc3ccccc3n2)c1 on L929 Fibroblasts.
2

Provide L929 Fibroblasts Minimal Effective Concentration (MEC, uM) reading for C=CC(=O)Nc1cc(CN2CCN(C)C(=O)C2)cc(-c2cnc3ccccc3n2)c1 .
9
